- tgt: respiratory chain complex II + III (Candida albicans, UniProt A0A1D8PHA3+A0A1D8PJX3+P0C8L0)
- Sequence (P0C8L0 whole entry): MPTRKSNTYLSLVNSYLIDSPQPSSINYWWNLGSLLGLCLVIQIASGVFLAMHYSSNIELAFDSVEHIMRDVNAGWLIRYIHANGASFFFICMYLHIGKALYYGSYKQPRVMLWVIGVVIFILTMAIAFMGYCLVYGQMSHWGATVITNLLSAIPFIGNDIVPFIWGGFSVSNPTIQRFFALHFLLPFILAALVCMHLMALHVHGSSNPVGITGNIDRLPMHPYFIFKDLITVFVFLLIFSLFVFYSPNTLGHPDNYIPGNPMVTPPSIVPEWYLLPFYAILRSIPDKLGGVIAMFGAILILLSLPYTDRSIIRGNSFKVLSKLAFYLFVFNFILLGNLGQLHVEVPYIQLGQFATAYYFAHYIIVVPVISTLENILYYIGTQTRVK
- Sequence (A0A1D8PHA3 43-288): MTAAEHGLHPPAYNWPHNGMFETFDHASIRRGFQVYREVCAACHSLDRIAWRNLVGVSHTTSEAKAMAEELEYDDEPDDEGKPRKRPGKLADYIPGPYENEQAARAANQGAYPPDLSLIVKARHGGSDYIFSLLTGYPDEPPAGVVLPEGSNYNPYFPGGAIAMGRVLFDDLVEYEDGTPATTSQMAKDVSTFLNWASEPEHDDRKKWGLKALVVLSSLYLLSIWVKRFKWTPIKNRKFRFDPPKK
- Sequence (A0A1D8PJX3 30-213): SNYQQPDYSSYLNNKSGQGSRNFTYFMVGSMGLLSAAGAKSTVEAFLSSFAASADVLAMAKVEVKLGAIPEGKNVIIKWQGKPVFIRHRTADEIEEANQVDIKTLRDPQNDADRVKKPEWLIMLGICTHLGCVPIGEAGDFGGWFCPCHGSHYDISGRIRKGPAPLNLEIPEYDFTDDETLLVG
- experimentDescription: Respiratory chain enzymatic activity, complexes II plus III, C. albicans
- assayContext: C. albicans mitochondria; read-out: IC50 ± SD, Complex II + III
quantityName: IC50 (µM)
Reply numerically in µM, unit not repeated.

Please report the recorded IC50 for `N=C(N)c1ccc(OCCCC2CCN(CCCOc3ccc(C(=N)N)cc3)CC2)cc1` .
220

###

- tgt: respiratory chain complex I (Bos taurus, UniProt P03887+P17694+P42026)
- experimentDescription: MitoCheck complex I activity assay, bovine heart mitochondria
- Type: biochemical
- assayContext: bovine heart mitochondria; read-out: IC50 ± SD, Complex I
quantityName: IC50

Which IC50 reading was recorded for the molecule N=C(N)c1ccc(OCCCC2CCN(CCCOc3ccc(C(=N)N)cc3)CC2)cc1 [T-2307] ?
> 3 mM

###

- tgt: respiratory chain complex II + III (Bos taurus, UniProt P00125+P00157+P13272)
- experimentDescription: MitoCheck complex II/III activity assay, bovine heart mitochondria
- assayContext: bovine heart mitochondria; read-out: IC50 ± SD, Complex II + III
pIC50: −log10 of the molar value.
quantityName: pIC50

What does the record list as pIC50 for N=C(N)c1ccc(OCCCC2CCN(CCCOc3ccc(C(=N)N)cc3)CC2)cc1 [T-2307] ?
< 2.52

###

- tgt: NADH dehydrogenase
- experimentDescription: NADH dehydrogenase activity, C. albicans
- assayContext: C. albicans mitochondria; involves complex I activity; read-out: IC50 against NADH dehydrogenase activity
quantityName: pIC50
Field pIC50 (float): negative decimal logarithm of the concentration in molar.

Return reported pIC50; argument: `N=C(N)c1ccc(OCCCC2CCN(CCCOc3ccc(C(=N)N)cc3)CC2)cc1`
2.70

###

- tgt: respiratory chain complex II + III (Saccharomyces cerevisiae, UniProt P00163+P07143+P08067)
- experimentDescription: Respiratory chain enzymatic activity, complexes II plus III, S. cerevisiae
quantityName: pIC50
// pIC50 here means minus log10 of the molar concentration (mol/L)

Entry `N=C(N)c1ccc(OCCCC2CCN(CCCOc3ccc(C(=N)N)cc3)CC2)cc1` : reported pIC50 = ?
3.57

###

- tgt: respiratory chain complex IV (Candida albicans, UniProt P0C8K9+Q9B1P9+Q9B8D8)
- Sequence (P0C8K9 whole entry): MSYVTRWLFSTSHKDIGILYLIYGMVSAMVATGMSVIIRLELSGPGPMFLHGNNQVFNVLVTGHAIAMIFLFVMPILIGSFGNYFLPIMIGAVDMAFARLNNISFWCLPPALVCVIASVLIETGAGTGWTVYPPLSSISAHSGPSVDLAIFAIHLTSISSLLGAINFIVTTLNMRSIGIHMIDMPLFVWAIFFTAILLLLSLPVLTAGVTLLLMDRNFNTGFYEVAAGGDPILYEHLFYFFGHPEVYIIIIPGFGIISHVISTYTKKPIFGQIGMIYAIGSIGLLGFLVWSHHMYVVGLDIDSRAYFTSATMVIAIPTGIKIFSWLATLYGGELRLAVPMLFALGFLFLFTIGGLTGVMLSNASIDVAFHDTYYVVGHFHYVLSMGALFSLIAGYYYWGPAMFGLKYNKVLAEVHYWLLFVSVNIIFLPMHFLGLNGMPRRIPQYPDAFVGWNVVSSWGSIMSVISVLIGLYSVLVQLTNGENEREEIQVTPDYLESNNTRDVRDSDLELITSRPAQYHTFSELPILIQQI
- Sequence (Q9B8D8 whole entry): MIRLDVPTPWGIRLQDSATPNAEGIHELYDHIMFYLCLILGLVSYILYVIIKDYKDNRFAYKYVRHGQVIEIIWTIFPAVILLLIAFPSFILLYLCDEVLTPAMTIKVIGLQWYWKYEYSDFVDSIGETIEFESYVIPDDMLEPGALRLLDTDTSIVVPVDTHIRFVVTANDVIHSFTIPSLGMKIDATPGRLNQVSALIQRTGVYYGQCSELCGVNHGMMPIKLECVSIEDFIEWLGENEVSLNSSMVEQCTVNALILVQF
- Sequence (Q9B1P9 whole entry): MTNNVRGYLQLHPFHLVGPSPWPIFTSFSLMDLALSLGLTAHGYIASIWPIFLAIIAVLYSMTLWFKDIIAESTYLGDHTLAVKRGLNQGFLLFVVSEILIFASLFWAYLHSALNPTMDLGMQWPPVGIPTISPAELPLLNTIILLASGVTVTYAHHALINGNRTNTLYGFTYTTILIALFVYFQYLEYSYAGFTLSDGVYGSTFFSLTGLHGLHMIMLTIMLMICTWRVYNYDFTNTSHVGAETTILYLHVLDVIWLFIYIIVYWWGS
- experimentDescription: Respiratory chain enzymatic activity, complex IV, C. albicans
- assayContext: C. albicans mitochondria; read-out: IC50 ± SD, Complex IV
quantityName: pIC50
Keep it numeric: pIC50 is minus log10 of the concentration in mol/L.

Name the reported pIC50 value associated with the compound `N=C(N)c1ccc(OCCCC2CCN(CCCOc3ccc(C(=N)N)cc3)CC2)cc1`
3.65
